# System: HT-29 cells
# Procedure details: Cellular RIP1 inhibitory activity: necroptosis of HT-29 cells induced by TNF-α/SMAC mimetic/zVAD-FMK, CellTiter-Glo viability
# Assay type: cell-based
# Conditions used: Homo sapiens; HT-29 cells; TNF-α 10 ng/ml, SMAC mimetic 6 μM, zVAD-FMK 10 μM; 20 hours; geometric mean, 10 points, duplicates; read-out: EC50 (Cell activity; Necrosis or Necroptosis Inhibitory Activity)
pEC50: −log10 of the molar value.
Value type: pEC50

Query :: Kindly indicate its recorded pEC50. Item: CN(C)C1CN(C(=O)c2nc(N3CCN(C(=O)N4N=CC[C@H]4c4cc(F)cc(F)c4)CC3)ncc2F)C1
Result :: 7.00 to 10.00

More entries:
Query :: Kindly indicate its recorded pEC50. Item: N#CC=C1CN(C(=O)c2nc(N3CCN(C(=O)N4N=CC[C@H]4c4cc(F)cc(F)c4)CC3)ncc2F)C1
Result :: 7.00 to 10.00
